Recorded values, source patent US20150140169.

Molecular target: T1, alpha-s1 casein from Bos taurus
T1 chain: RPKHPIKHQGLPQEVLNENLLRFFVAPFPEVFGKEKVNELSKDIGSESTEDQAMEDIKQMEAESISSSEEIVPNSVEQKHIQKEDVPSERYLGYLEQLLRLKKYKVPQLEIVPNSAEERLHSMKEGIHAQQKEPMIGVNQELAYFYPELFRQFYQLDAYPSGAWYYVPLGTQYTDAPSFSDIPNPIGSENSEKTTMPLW
measured_metric: (αSN1-1)/(αSN1), 24 hours, 11° C.

Take a look at these entries with their results.
>>> result("camel chymosin variant #145 (F223I) (protein) GKVAREPLTSYLDSQYFGKIYIGTPPQEFTVVFDTGSSDLWVPSIYCKSNVCKNHHRFDPRKSSTFRNLGKPLSIHYGTGSMEGFLGYDTVTVSNIVDPNQTVGLSTEQPGEVFTYSEFDGILGLAYPSLASEYSVPVFDNMMDRHLVARDLFSVYMDRNGQGSMLTLGAIDPSYYTGSLHWVPVTLQQYWQFTVDSVTINGVAVACVGGCQAILDTGTSVLIGPSSDILKIQMAIGATENRYGEFDVNCGNLRSMPTVVFEINGRDYPLSPSAYTSKDQGFCTSGFQGDNNSELWILGDVFIREYYSVFDRANNRVGLAKAI")
4.1
>>> result("camel chymosin variant #167 (I297V) (protein) GKVAREPLTSYLDSQYFGKIYIGTPPQEFTVVFDTGSSDLWVPSIYCKSNVCKNHHRFDPRKSSTFRNLGKPLSIHYGTGSMEGFLGYDTVTVSNIVDPNQTVGLSTEQPGEVFTYSEFDGILGLAYPSLASEYSVPVFDNMMDRHLVARDLFSVYMDRNGQGSMLTLGAIDPSYYTGSLHWVPVTLQQYWQFTVDSVTINGVAVACVGGCQAILDTGTSVLFGPSSDILKIQMAIGATENRYGEFDVNCGNLRSMPTVVFEINGRDYPLSPSAYTSKDQGFCTSGFQGDNNSELWVLGDVFIREYYSVFDRANNRVGLAKAI")
2.9

Q: May I ask what (αSN1-1)/(αSN1), 24 hours, 11° C. has been recorded for camel chymosin variant #164 (L295Y) (protein) GKVAREPLTSYLDSQYFGKIYIGTPPQEFTVVFDTGSSDLWVPSIYCKSNVCKNHHRFDPRKSSTFRNLGKPLSIHYGTGSMEGFLGYDTVTVSNIVDPNQTVGLSTEQPGEVFTYSEFDGILGLAYPSLASEYSVPVFDNMMDRHLVARDLFSVYMDRNGQGSMLTLGAIDPSYYTGSLHWVPVTLQQYWQFTVDSVTINGVAVACVGGCQAILDTGTSVLFGPSSDILKIQMAIGATENRYGEFDVNCGNLRSMPTVVFEINGRDYPLSPSAYTSKDQGFCTSGFQGDNNSEYWILGDVFIREYYSVFDRANNRVGLAKAI ?
Ans: 1.8
